# System: PARP-2 (Homo sapiens)
# Construct: purchased BPS Bioscience 80552
# Sequence (Q9UGN5 whole entry): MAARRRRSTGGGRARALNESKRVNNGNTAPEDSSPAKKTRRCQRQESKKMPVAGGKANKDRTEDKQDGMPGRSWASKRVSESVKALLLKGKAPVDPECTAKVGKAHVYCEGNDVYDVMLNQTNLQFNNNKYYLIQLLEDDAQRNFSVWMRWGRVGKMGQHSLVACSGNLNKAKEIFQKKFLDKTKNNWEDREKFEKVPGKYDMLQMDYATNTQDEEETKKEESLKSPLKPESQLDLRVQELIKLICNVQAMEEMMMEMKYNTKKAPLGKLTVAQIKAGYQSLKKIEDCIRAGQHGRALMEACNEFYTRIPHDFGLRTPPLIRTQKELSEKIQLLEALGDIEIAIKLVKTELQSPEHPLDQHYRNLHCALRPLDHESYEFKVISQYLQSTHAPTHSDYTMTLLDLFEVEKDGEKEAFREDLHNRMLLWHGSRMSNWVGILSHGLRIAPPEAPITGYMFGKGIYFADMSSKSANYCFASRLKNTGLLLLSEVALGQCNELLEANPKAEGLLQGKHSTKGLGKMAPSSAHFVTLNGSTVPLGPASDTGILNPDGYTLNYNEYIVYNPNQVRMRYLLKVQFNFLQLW
# Protocol Details: PARP-2 inhibition assay (PARP-2 Chemiluminescent Assay Kit, BPS Bioscience)
# Format: biochemical
# Measurement Context: read-out: PARP-2 IC50
# Protocol: The PARP-1 and PARP-2 inhibition assays were performed in outsourcing, by a CRO company, Shanghai Medicilon Inc. (Shanghai, China). […] Briefly, PARP-1 or PARP-2 biotinylated substrate was incubated with compounds or solvent control at varying concentrations and an assay buffer containing the PARP-1 or PARP-2 enzyme.
pIC50: −log10 of the molar value.
Value Kind: pIC50

{"Compound": "COc1ccc(C(=O)CCN2CCC(c3nc4c(C(N)=O)cccc4[nH]3)C2)cc1 (stereo not drawn) [Compound 5ci]", "pIC50": 8.35}
{"Compound": "NC(=O)c1cccc2[nH]c(C3CCN(CCC(=O)c4ccc(Cl)cc4)C3)nc12 (stereo not drawn) [Compound 5cj]", "pIC50": 8.38}
{"Compound": "NC(=O)c1cccc2[nH]c(C3CCN(CCCNc4ccccc4)C3)nc12 (stereo not drawn) [Compound 5ch]", "pIC50": 8.48}
{"Compound": "NC(=O)c1cccc2[nH]c(C3CCN(CCCC(=O)c4ccccc4)C3)nc12 (stereo not drawn) [Compound 5cc]", "pIC50": 8.24}

P. NC(=O)c1cccc2[nH]c(C3CCN(CCNC(=O)c4ccccc4)C3)nc12 (stereo not drawn) [Compound 5co]
Q. NC(=O)c1cccc2[nH]c(C3CCN(CCC(=O)c4ccccc4)C3)nc12 (stereo not drawn) [Compound 5cp]
Smaller pIC50 value? Options are P and Q Respond using the label that marks the chosen record.
P
(P: 8.24, Q: 8.49)
